Species on record: Mus musculus
Assay: Effective dose required to obtain a parasitaemia of 40% 48 hours after treatment in mice
Type: functional
Each entry below lists one item and its recorded ED40 value.
Numeric answer plus unit only.

## Input # get_value(readout='ED40', item= `Cn1c(=O)nc2n(-c3cccc(C(F)(F)F)c3)c3ccccc3nc-2c1=O` )
## Output 79.3 µmol/kg

## Input State the recorded ED40 for this entry: `Cc1ccc(-n2c3nc(=O)n(C)c(=O)c-3nc3ccccc32)cc1Cl`
## Output 456 µmol/kg

## Input ED40 lookup needed for `Cn1c(=O)nc2n(-c3ccc(F)cc3)c3ccccc3nc-2c1=O` , thanks.
## Output 103 µmol/kg

====

System: Mus musculus
Test: Antimalarial activity was evaluated against Plasmodium vinckei vinckei V52 after intraperitoneal administration at dose 50 mg/kg
Format: functional
MEASUREMENT_NAME: Cured (%)
Only the number, expressed in %, is required.

Cc1ccc(-n2c3nc(=O)n(C)c(=O)c-3nc3ccccc32)c(C)c1 : 0

## Input I'd like to know its Cured. The molecule in question is `Cc1ccc(-n2c3nc(=O)n(C)c(=O)c-3nc3ccccc32)cc1C`
## Output 20

## Input Form field: reported Cured of `Cn1c(=O)nc2n(-c3ccc(Cl)c(Cl)c3)c3ccccc3nc-2c1=O`
## Output 0

## Input Query: Cured; subject: `CCCCc1ccc(-n2c3nc(=O)n(C)c(=O)c-3nc3ccccc32)cc1`
## Output 0

## Input Which value of Cured has been reported for `Cc1cc(Cl)cc(-n2c3nc(=O)n(C)c(=O)c-3nc3ccccc32)c1` in the records?
## Output 100

## Input Fill blank: measured Cured of the molecule `Cc1cc(C)cc(-n2c3nc(=O)n(C)c(=O)c-3nc3ccccc32)c1` is ____.
## Output 60

## Input Using the record for `Cn1c(=O)nc2n(-c3cccc(C(F)(F)F)c3)c3ccccc3nc-2c1=O` , report its Cured.
## Output 100

## Input Given the entry `COc1cc(OC)cc(-n2c3nc(=O)n(C)c(=O)c-3nc3ccccc32)c1` , report its measured Cured.
## Output 0

====

Tested on: Mus musculus
Test: Increase in mean survival days was determined in mice after ip administration of 25 mg/kg
Type: functional
Conditions: route intraperitoneal
MEASUREMENT_NAME: Mean survival days (days)
Report the figure in days without appending any unit label.

Observe how each entry below is paired with its result.
CCCCc1ccc(-n2c3nc(=O)n(C)c(=O)c-3nc3ccccc32)cc1 : 0.1
Cc1cccc(-n2c3nc(=O)n(C)c(=O)c-3nc3ccccc32)c1 : 0
Cn1c(=O)nc2n(-c3cccc(F)c3)c3ccccc3nc-2c1=O : 0

// switching to the query compound
## Input Value lookup for Mean survival days; key = `CCc1cccc(-n2c3nc(=O)n(C)c(=O)c-3nc3ccccc32)c1`
## Output 0

====

Test system: Mus musculus
Test: Antimalarial activity was evaluated against Plasmodium vinckei vinckei V52 after intraperitoneal administration at dose 40 mg/kg
Type: functional
MEASUREMENT_NAME: Cured (%)
Your answer is read as %, so omit the unit and give the number.

Some solved entries appear below for comparison.
Cn1c(=O)nc2n(-c3cc(Cl)cc(Cl)c3)c3ccccc3nc-2c1=O : 100
Cc1cc(C)cc(-n2c3nc(=O)n(C)c(=O)c-3nc3ccccc32)c1 : 100
Cn1c(=O)nc2n(-c3cccc(C(F)(F)F)c3)c3ccccc3nc-2c1=O : 100
Cc1cc(Cl)cc(-n2c3nc(=O)n(C)c(=O)c-3nc3ccccc32)c1 : 100
Cn1c(=O)nc2n(-c3cccc(F)c3)c3ccccc3nc-2c1=O : 0

## Input What measured Cured goes with `Cc1ccc(-n2c3nc(=O)n(C)c(=O)c-3nc3ccccc32)c(C)c1` ?
## Output 40

====

Test system: Mus musculus
Assay: Antimalarial activity was evaluated against Plasmodium vinckei V52 after intraperitoneal administration at dose 30 mg/kg
Assay type: functional
MEASUREMENT_NAME: Cured (%)
The reply should be a number in %, with the unit left off.

Cn1c(=O)nc2n(-c3ccc(Br)cc3)c3ccccc3nc-2c1=O : 100

## Input Give the measured Cured of `Cn1c(=O)nc2n(-c3cccc(Br)c3)c3ccccc3nc-2c1=O` .
## Output 0

====

Test system: Mus musculus
Assay: Increase in mean survival days was determined in mice after ip administration of 50 mg/kg
Format: functional
Details: route intraperitoneal
Measured Mean survival days, listed per entry.
Enter your answer as a number in days; do not include the unit.

## Input Quick one: Mean survival days of `COc1cc(OC)cc(-n2c3nc(=O)n(C)c(=O)c-3nc3ccccc32)c1` ?
## Output 0

## Input I am curious: what Mean survival days value has been reported for `Cn1c(=O)nc2n(-c3ccc(F)cc3)c3ccccc3nc-2c1=O` ?
## Output -0.5

## Input Give the measured Mean survival days of `Cc1ccc(-n2c3nc(=O)n(C)c(=O)c-3nc3ccccc32)cc1` .
## Output 0.3

## Input Suppose we examine the compound `Cc1cc(C)cc(-n2c3nc(=O)n(C)c(=O)c-3nc3ccccc32)c1` ; what Mean survival days value has been reported?
## Output 5.5

## Input I am curious: what Mean survival days value has been reported for `Cc1cccc(-n2c3nc(=O)n(C)c(=O)c-3nc3ccccc32)c1` ?
## Output 0.5

====

System: Mus musculus
Assay: Increase in mean survival days was determined in mice after ip administration of 70 mg/kg; toxic
Type: functional
Settings: route intraperitoneal
We begin with a simple list: items and their reported Mean survival days.
Answer format: numeric, days implied, no suffix.

Worked set:
Cn1c(=O)nc2n(-c3ccc(F)cc3)c3ccccc3nc-2c1=O : -0.6
Cn1c(=O)nc2n(-c3cccc(F)c3)c3ccccc3nc-2c1=O : -1
Cn1c(=O)nc2n(-c3ccc(S(C)(=O)=O)cc3)c3ccccc3nc-2c1=O : -2
Cc1ccc(-n2c3nc(=O)n(C)c(=O)c-3nc3ccccc32)c(C)c1 : -2
Cn1c(=O)nc2n(-c3ccccc3Cl)c3ccccc3nc-2c1=O : -2
Cn1c(=O)nc2n(-c3ccc(F)c(F)c3)c3ccccc3nc-2c1=O : -1
Cn1c(=O)nc2n(-c3ccc(Cl)cc3)c3ccccc3nc-2c1=O : -1

## Input Lookup: Mean survival days / Mus musculus / `Cn1c(=O)nc2n(-c3cccc(C(F)(F)F)c3)c3ccccc3nc-2c1=O`
## Output 7.5

====

Catalogue of Mean survival days values
System: Mus musculus
Assay: Increase in mean survival days was determined in mice after ip administration of 50 mg/kg
Type: functional
Conditions: route intraperitoneal
Express it in days; write the number only.

Previously resolved entries follow.
Cn1c(=O)nc2n(-c3cccc(F)c3)c3ccccc3nc-2c1=O : 0
Cn1c(=O)nc2n(-c3ccccc3)c3ccccc3nc-2c1=O : 0.3
COc1ccc(-n2c3nc(=O)n(C)c(=O)c-3nc3ccccc32)cc1 : 2

## Input I would be grateful if you could share the reported Mean survival days for `Cn1c(=O)nc2n(-c3cc(C(F)(F)F)cc(C(F)(F)F)c3)c3ccccc3nc-2c1=O` .
## Output 0

## Input Item under review: `Cn1c(=O)nc2n(-c3cccc(Br)c3)c3ccccc3nc-2c1=O` . Reported Mean survival days?
## Output 1

## Input Requested field: Mean survival days. Item: `Cn1c(=O)nc2n(-c3ccc(Cl)c(Cl)c3)c3ccccc3nc-2c1=O`
## Output 0

## Input State the recorded Mean survival days for this entry: `Cc1cc(-n2c3nc(=O)n(C)c(=O)c-3nc3ccccc32)ccc1Cl`
## Output 0.3

## Input For the molecule `Cn1c(=O)nc2n(-c3cccc(Cl)c3)c3ccccc3nc-2c1=O` , what Mean survival days is on record?
## Output 0.4

## Input Data request, read-out Mean survival days, for `CCCCc1ccc(-n2c3nc(=O)n(C)c(=O)c-3nc3ccccc32)cc1`
## Output 0

## Input Record request: Mean survival days value, item `Cc1ccc(-n2c3nc(=O)n(C)c(=O)c-3nc3ccccc32)cc1C`
## Output 0.3
